Tested on: MCF7
Assay: Cytotoxicity against human MCF7 cells after 48 hrs by MTT assay
Assay type: functional, cell-based
Conditions: MCF7, 48 h
reported_property: log10 of IC50 (log10 of the value in µM)
For clarity, the numbers are log10 values of IC50 expressed in µM.

# annotated cases, reported log10 of IC50 shown
{"columns": ["compound", "log10 of IC50"],
 "data": [
  ["COc1cc(-c2cc(COCc3cn(Cc4cc(-c5ccccc5)cnc4N4CCOCC4)nn3)on2)cc(OC)c1OC", 1.80],
  ["COc1cc(C2=NOC(COCc3cn(Cc4cc(-c5ccccc5)cnc4N4CCOCC4)nn3)C2)cc(OC)c1OC (stereo not drawn)", 1.84],
  ["COc1cc(COCc2cn(Cc3cc(-c4ccc(C)cc4)cnc3Cl)nn2)cc(OC)c1OC", 2.16]
]}

Please look at the following compound next.
Challenge: Can you look up the measured log10 of IC50 of `COc1cc2c(c(OC)c1OC)-c1ccc(OC)c(=O)cc1[C@@H](NC(C)=O)CC2` for me?
Response given: -1.15

* * *

System: HeLa
Test: Cytotoxicity against human HeLa cells after 48 hrs by MTT assay
Assay type: functional, cell-based
Below: a set of entries, each annotated with reported pIC50.
API: returns pIC50 as number; meaning -log10 of concentration in mol/L.

# annotated cases, reported pIC50 shown
{"columns": ["molecule", "pIC50"],
 "data": [
  ["COc1cc(C2=NOC(COCc3cn(Cc4cc(C)cnc4Cl)nn3)C2)cc(OC)c1OC (centres undefined)", 4.30],
  ["COc1cc(C2=NOC(COCc3cn(Cc4cc(-c5ccccc5)cnc4N4CCOCC4)nn3)C2)cc(OC)c1OC (centres undefined)", 4.37],
  ["COc1cc(-c2cc(COCc3cn(Cc4cc(C)cnc4Cl)nn3)on2)cc(OC)c1OC", 4.24],
  ["COc1cc(C2=NOC(COCc3cn(Cc4cc(-c5ccc(F)cc5)cnc4Cl)nn3)C2)cc(OC)c1OC (centres undefined)", 4.57],
  ["COc1cc(COCc2cn(Cc3cc(-c4ccc(C)cc4)cnc3Cl)nn2)cc(OC)c1OC", 4.54]
]}

Challenge: pIC50 of `COc1cc(-c2cc(COCc3cn(Cc4cc(-c5ccccc5)cnc4N4CCOCC4)nn3)on2)cc(OC)c1OC` on HeLa?
Response given: 4.40

Challenge: pIC50 of `COc1cc(-c2cc(COCc3cn(Cc4cc(-c5ccc(C)cc5)cnc4N4CCSCC4)nn3)on2)cc(OC)c1OC` on HeLa?
Response given: 4.28

Challenge: pIC50 of COc1cc(C2=NOC(COCc3cn(Cc4cc(C)cnc4N4CCOCC4)nn3)C2)cc(OC)c1OC (centres undefined) on HeLa?
Response given: 4.43

Challenge: pIC50 of `COc1cc(COCc2cn(Cc3cc(-c4ccccc4)cnc3Cl)nn2)cc(OC)c1OC` on HeLa?
Response given: 4.38

* * *

Test system: MCF7
Assay: Cytotoxicity against human MCF7 cells after 48 hrs by MTT assay
Format: functional, cell-based
Conditions: MCF7, 48 h
pIC50: −log10 of the molar value.
pIC50 below 4 gives -1; pIC50 at or above it gives 1.

{"columns": ["compound", "category"],
 "data": [
  ["COc1cc(-c2cc(COCc3cn(Cc4cc(-c5ccc(F)cc5)cnc4Cl)nn3)on2)cc(OC)c1OC", 1],
  ["COc1cc(COCc2cn(Cc3cc(-c4ccc(C)cc4)cnc3N3CCSCC3)nn2)cc(OC)c1OC", 1],
  ["COc1cc(COCc2cn(Cc3cc(-c4ccccc4)cnc3N3CCSCC3)nn2)cc(OC)c1OC", 1],
  ["COc1cc(-c2cc(COCc3cn(Cc4cc(-c5ccccc5)cnc4N4CCSCC4)nn3)on2)cc(OC)c1OC", -1],
  ["COc1cc(COCc2cn(Cc3cc(C)cnc3N3CCOCC3)nn2)cc(OC)c1OC", 1]
]}

Challenge: Form field: pIC50 at least 4? Entry: `COc1cc(-c2cc(COCc3cn(Cc4cc(-c5ccc(C)cc5)cnc4Cl)nn3)on2)cc(OC)c1OC`
Response given: 1

Challenge: Form field: pIC50 at least 4? Entry: COc1cc(C2=NOC(COCc3cn(Cc4cc(C)cnc4N4CCOCC4)nn3)C2)cc(OC)c1OC (stereo not drawn)
Response given: -1

Challenge: Form field: pIC50 at least 4? Entry: `COc1cc(-c2cc(COCc3cn(Cc4cc(C)cnc4Cl)nn3)on2)cc(OC)c1OC`
Response given: -1

Challenge: Form field: pIC50 at least 4? Entry: COc1cc(C2=NOC(COCc3cn(Cc4cc(-c5ccc(C)cc5)cnc4N4CCSCC4)nn3)C2)cc(OC)c1OC (stereo not drawn)
Response given: 1

Challenge: Form field: pIC50 at least 4? Entry: `COc1cc(COCc2cn(Cc3cc(C)cnc3Cl)nn2)cc(OC)c1OC`
Response given: 1

Challenge: Form field: pIC50 at least 4? Entry: `COc1cc(COCc2cn(Cc3cc(-c4ccc(C)cc4)cnc3N3CCOCC3)nn2)cc(OC)c1OC`
Response given: 1

Challenge: Form field: pIC50 at least 4? Entry: COc1cc(C2=NOC(COCc3cn(Cc4cc(-c5ccc(F)cc5)cnc4Cl)nn3)C2)cc(OC)c1OC (stereo not drawn)
Response given: 1

Challenge: Form field: pIC50 at least 4? Entry: `COc1cc(-c2cc(COCc3cn(Cc4cc(-c5ccccc5)cnc4Cl)nn3)on2)cc(OC)c1OC`
Response given: 1

Challenge: Form field: pIC50 at least 4? Entry: `COc1cc(-c2cc(COCc3cn(Cc4cc(C)cnc4N4CCOCC4)nn3)on2)cc(OC)c1OC`
Response given: -1

Challenge: Form field: pIC50 at least 4? Entry: COc1cc(C2=NOC(COCc3cn(Cc4cc(-c5ccccc5)cnc4Cl)nn3)C2)cc(OC)c1OC (stereo not drawn)
Response given: 1
